Source of measurements: PubChem BioAssay (NCATS)

# Assay comment: qHTS for compounds that reverse cellular toxicity of Amyloid beta (A-beta) peptide in yeast: LOPAC Validation Assay (AID 720559);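 also: plate controls were DMSO for no effect and equimolar ferric chloride plus clioquinol rescue for full effect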
# Setup conditions: yeast expressing A-beta; series mostly up to 46.1 µM
Active and inactive are the calls of the source. Calls follow the shape of the dose curve; as a rule, active = well fitted curve in the direction sought with a large enough effect; inconclusive = small, poorly fitted or top-dose-only effect, or another doubt; inactive = no such curve, though single readings can be large or run the other way.
Parameter measured: outcome

O=C1NC(=O)C(c2ccccc2[N+](=O)[O-])=C1Nc1ccc(O)c(Cl)c1    inactive
Oc1ccc2ccccc2c1SSc1c(O)ccc2ccccc12    inactive
Cc1cc(O)c2c(c1)C(=O)c1cc(O)cc(O)c1C2=O    inactive

----------
Below, each entry is listed with its recorded viability change.
# Assay comment: Nrf2 qHTS screen for inhibitors: Validation (AID 493153)
# Setup conditions: A549 ARE-Fluc reporter, 18-24 h; measured here: cytotoxicity max response
Results filed as inconclusive are left out.
Report as a plain number; the unit % is understood.

Worked set:
OC(CN1CCN(c2cccc(Cl)c2)CC1)C(c1ccccc1)c1ccccc1 (configuration not stated)    1.98
Cc1cc(O)c2c(c1)C(=O)c1cc(O)cc(O)c1C2=O    -15.1
O=C1c2c(O)cc(O)cc2OC(c2ccc(O)c(O)c2)C1O (configuration not stated)    -0.133
CCN(CC)C(=S)SSC(=S)N(CC)CC    1.38
O=C1NC(=O)C(c2ccccc2[N+](=O)[O-])=C1Nc1ccc(O)c(Cl)c1    5.73

Requested field: viability change. Item: COc1ccc2cc([C@H](C)C(=O)O)ccc2c1
-8.13

// returns reported viability change for input NCCCCNCCCN
3.72

Would you kindly share the measured viability change for CCOC(=O)C(C)Oc1cccc2c(=O)n(CC(=O)Nc3ccc4c(c3)OCCO4)ccc12 (configuration not stated) ?
-3.9

// viability change lookup, key: O=C(CCc1ccc(O)cc1)c1c(O)cc(O)cc1O
-1.1

Quick one: viability change for O=C(c1ccccc1)c1ccc2n1CCC2C(=O)O (configuration not stated) ?
0.0927

# input compound: NNc1nncc2ccccc12 ; wanted: its viability change
-2.74

Returns the measured viability change for the input compound. Input: Nc1nc(N)c(N=O)c(OCC2CCCCC2)n1
-2.98

----------
# Assay comment: Quantitative High-Throughput drug screen in 47 multiple myeloma cell lines against the NCATS MIPE library collection: OCIMY7_PLB cell viability assay (AID 1918987); also: nearly all actives have a fitted effect of over 65% in size
# Setup conditions: OCI-MY7 myeloma viability, CellTiter-Glo ATP, 48 h; series mostly up to 45.8 µM
Records with an inconclusive call do not appear. Calls of active or inactive are those of the source. Calls follow the shape of the dose curve; as a rule, active = well fitted cell-killing curve with a large enough effect; inconclusive = small, poorly fitted or top-dose-only effect, or effect the other way; inactive = no such curve, though single readings can be large or run the other way.
Choose the fitting class; nothing outside t for active, f for inactive is accepted.

As a guide, the following entries are already answered.
COc1c(O)cc2c(c1O)[C@@H]1O[C@H](CO)[C@@H](O)[C@H](O)[C@H]1OC2=O    f
Nc1ccn([C@@H]2O[C@H](CO)[C@@H](O)C2O)c(=O)n1 (some centres undefined)    f
COc1ccc2cc([C@H](C)C(=O)O)ccc2c1    t
Cc1c(C(=O)NN2CCCCC2)nn(-c2ccc(Cl)cc2Cl)c1-c1ccc(Cl)cc1    t

For CN(C)C(=O)[C@H](O)[C@H](Cc1ccccc1)NC(=O)c1cc2cc(Cl)ccc2[nH]1 , what call appears in the results of this test?
t

Kindly provide the recorded test outcome for the following molecule: Cc1ccc(C)c(OCCCC(C)(C)C(=O)O)c1
t

----------
# Assay comment: qHTS of pediatric cancer cell lines to identify multiple opportunities for drug repurposing: Confirmatory screen for BT-12 cells (AID 1347112);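 also: viability read after 48 h of compound exposure; nearly all actives have a fitted effect of over 55% in size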
# Setup conditions: BT-12 rhabdoid tumor cells, viability; series mostly up to 45.9 µM
Results filed as inconclusive are left out. The source made the active and inactive calls. Calls follow the shape of the dose curve; as a rule, active = well fitted cell-killing curve with a large enough effect; inconclusive = small, poorly fitted or top-dose-only effect; inactive = flat fitted curve, though single readings scatter.
Parameter call: string, one of active, inactive

For orientation, consider the following solved cases.
Nc1ccn([C@@H]2O[C@H](CO)[C@@H](O)C2O)c(=O)n1 (stereo partly specified)    inactive
Oc1ccc(-c2nc(-c3ccc(F)cc3)c(-c3ccncc3)[nH]2)cc1    active
CCN(CC)CCOc1ccc(Nc2ncc3cc(-c4c(Cl)cccc4Cl)c(=O)n(C)c3n2)cc1    active
Clc1ccc(C(Cn2ccnc2)OCc2ccc(Sc3ccccc3)cc2)c(Cl)c1 (stereo unspecified)    active
C=C(c1ccc(C(=O)O)cc1)c1cc2c(cc1C)C(C)(C)CCC2(C)C    inactive

Next, consider the following molecule.
Could you check what this test reported for Nc1ncn([C@H]2C[C@H](O)[C@@H](CO)O2)c(=O)n1 ?
inactive
